biological target: Nuclear receptor subfamily 1 group I member 2 (Homo sapiens, UniProt O75469); test: Activation of full length PXR (unknown origin) transfected in HepG2 cells at 10 uM by luciferase reporter gene assay relative to rifampicin; assay type: ADME, cell-based; conditions: hepg2, 10 µM
Sequence (O75469 whole entry): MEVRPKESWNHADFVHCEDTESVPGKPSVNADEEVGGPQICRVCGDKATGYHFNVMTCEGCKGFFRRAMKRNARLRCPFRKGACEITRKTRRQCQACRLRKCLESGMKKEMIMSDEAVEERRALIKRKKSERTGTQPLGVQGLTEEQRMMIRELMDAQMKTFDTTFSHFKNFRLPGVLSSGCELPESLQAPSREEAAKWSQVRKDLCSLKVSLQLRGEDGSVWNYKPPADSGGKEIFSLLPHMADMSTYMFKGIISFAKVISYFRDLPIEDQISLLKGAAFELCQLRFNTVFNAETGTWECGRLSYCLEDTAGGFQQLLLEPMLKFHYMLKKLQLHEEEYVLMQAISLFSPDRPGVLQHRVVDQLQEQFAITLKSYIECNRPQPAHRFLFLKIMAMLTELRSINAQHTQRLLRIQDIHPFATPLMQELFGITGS
readoutLabel: Activity (%)

Consider the reported Activity for these compounds:
O=c1ccn2c(n1)O[C@H](COc1ccc(-c3cccc(C(F)(F)F)c3)cc1)C2 : 114
CC(C)(C)c1ccc(OC[C@@H]2Cn3ccc(=O)nc3O2)cc1 : 3
CC1(C)CCc2cc(OC[C@@H]3Cn4ccc(=O)nc4O3)ccc21 : 13

1. CCc1cn2c(nc1=O)O[C@H](COc1ccc(-c3cccc(C)c3C)cc1)C2
2. Cc1cccc(-c2ccc(OC[C@@H]3Cn4ccc(=O)nc4O3)cc2)c1C
Select one: 1 or 2 . Criterion: greater recorded Activity. When you have decided, please share the label of that item.
2
